Every entry's value here was drawn from ChEMBL document CHEMBL1201862.

# Test system: SNB-75
# assay_procedure: NCI tumour cell line growth inhibition, 48 h
The source made the active and inactive calls. No stated cut-off is given here; in the data, active = GI50 up to about 1.1 µM and inactive = higher.
Allowed answers: active, inactive

Illustrative cases are given below, each with its answer.
| compound | system | discrete_label |
| --- | --- | --- |
| CC(C)C[C@H](NC(=O)[C@H](Cc1cccc2ccccc12)NC(=O)N1CCOCC1)B(O)O | SNB-75 | active |
| Cc1ccc2nc3sc(=O)sc3nc2c1 | SNB-75 | inactive |
| CO[C@H]1O[C@@H]2CO[C@@H](c3ccccc3)O[C@H]2C[C@]12CCC/C=C\CO2 | SNB-75 | inactive |

Query: Which result was noted for this compound in the test: COc1ccc(C2=C(Cl)c3cc(OC)c(OC)cc3C2Cl)cc1 (stereo not given)
Result: active

Query: Call for entry O=C(Nc1ccn(C2CCC(CO)O2)c(=O)n1)c1ccccc1 (stereo not given) :
Result: inactive
